Each recorded value in this set is attributed to patent US7166705B2.

Biological target: SP9144 (Homo sapiens, UniProt Q9H3N8)
Construct: expressed in transfected cells; host or cells: HEK-293-EBNA / HEK-293 cells, transient transfection with pCR3.1-SP9144
Sequence (Q9H3N8 whole entry): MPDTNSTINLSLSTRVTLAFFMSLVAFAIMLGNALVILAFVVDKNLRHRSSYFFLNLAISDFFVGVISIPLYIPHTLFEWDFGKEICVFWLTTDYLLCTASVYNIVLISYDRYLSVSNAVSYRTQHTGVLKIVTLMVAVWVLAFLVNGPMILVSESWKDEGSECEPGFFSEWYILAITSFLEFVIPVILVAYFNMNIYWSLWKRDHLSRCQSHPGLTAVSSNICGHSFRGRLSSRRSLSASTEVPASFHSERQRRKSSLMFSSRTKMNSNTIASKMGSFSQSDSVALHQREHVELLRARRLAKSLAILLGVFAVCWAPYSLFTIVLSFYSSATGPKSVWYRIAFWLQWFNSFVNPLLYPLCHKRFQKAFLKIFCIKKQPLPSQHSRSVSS
Assay: FLIPR intracellular Ca2+ assay, HEK-293-EBNA cells transfected with pCR3.1-SP9144
Format: cell-based
Conditions: HEK-293-EBNA cells transfected with pCR3.1-SP9144; drugs 1×10^−4 M to 1×10^−9 M
quantity-kind: activation of SP9144 (change in intracellular Ca++, Fluo3 fluorescence)

compound	observed-value
C[C@@H](N)Cc1c[nH]cn1 [(R) α-methylhistamine]	able to activate SP9144
CN(C)CCC(c1ccc(Cl)cc1)c1ccccn1 (stereo not drawn)	completely inactive
CN/C(=N/CCSCc1nc[nH]c1C)NC#N	completely inactive
CNCCc1c[nH]cn1	able to activate SP9144
